Values from patent US9321722B2

tested on: S. epidermidis ATCC 12228; assay: MIC microdilution (Table I-1); format: cell-based, Staphylococcus epidermidis; settings: Staphylococcus epidermidis, ATCC12228, read after 18 hours, read-out: MIC
Experimental Endpoint: MIC (µg/mL)
Give the value in µg/mL but do not write µg/mL after it.

In [3]: df
Out[3]:
                                   compound                        tgt  quantity_unit  val
0  CC(C)(C)OC(=O)NCC(NC(=O)C(=O)c1c[nH]c2cc(Br)ccc12)c1c[nH]c2ccccc12 (stereo not shown)  S. epidermidis ATCC 12228          µg/mL    4
1  CC(C)(C)OC(=O)NCC(NC(=O)C(=O)c1c[nH]c2ccc(Br)cc12)c1c[nH]c2ccc(Br)cc12 (stereo not shown)  S. epidermidis ATCC 12228          µg/mL  0.8

Read the next record carefully.
Reported MIC for CC(NC(=O)C(=O)c1c[nH]c2ccc(Br)cc12)c1c[nH]c2ccc(Br)cc12 (stereo not shown) : what is it?
2

---

tested on: S. pneumoniae ATCC 6303; test: MIC microdilution (Table I-1); assay type: cell-based, Streptococcus pneumoniae; conditions: Streptococcus pneumoniae, ATCC6303, read after 18 hours, read-out: MIC
Experimental Endpoint: MIC

Reported MIC for O=C(C(=O)N1CCCCC1c1c[nH]c2ccc(Br)cc12)c1c[nH]c2ccc(Br)cc12 (stereo not drawn) [Compound 6d] : what is it?
> 128 µg/mL

Consider next the molecule CC(C)(C)OC(=O)NCC(NC(=O)C(=O)c1c[nH]c2ccccc12)c1c[nH]c2ccccc12 (stereo not drawn) [Compound 2] in the same way.
> 128 µg/mL

Consider next the molecule CC(NC(=O)C(=O)c1c[nH]c2ccc(Br)cc12)c1c[nH]c2ccc(Br)cc12 (stereo not drawn) [Compound 5] in the same way.
32 µg/mL

Consider next the molecule O=C(C(=O)N1CCOCC1c1c[nH]c2ccccc12)c1c[nH]c2ccccc12 (stereo not drawn) [Compound 6b] in the same way.
> 128 µg/mL

Consider next the molecule O=C(C(=O)N1CCCCC1c1c[nH]c2ccccc12)c1c[nH]c2ccccc12 (stereo not drawn) [Compound 6a] in the same way.
> 128 µg/mL

Consider next the molecule CC(C)(C)OC(=O)NCC(NC(=O)C(F)(F)F)c1c[nH]c2ccc(Br)cc12 (stereo not drawn) [Compound 13] in the same way.
128 µg/mL

Consider next the molecule CC(C)(C)OC(=O)N1CCN(C(=O)C(=O)c2c[nH]c3ccc(Br)cc23)C(c2c[nH]c3ccc(Br)cc23)C1 (stereo not drawn) [Compound 6f] in the same way.
> 128 µg/mL

Consider next the molecule CC(C)(C)OC(=O)NCC(NC(=O)C(=O)c1c[nH]c2cc(Br)ccc12)c1c[nH]c2ccccc12 (stereo not drawn) [Compound 3] in the same way.
64 µg/mL

Consider next the molecule CC(C)(C)OC(=O)N1CCN(C(=O)C(=O)c2c[nH]c3ccccc23)C(c2c[nH]c3ccccc23)C1 (stereo not drawn) [Compound 6c] in the same way.
> 128 µg/mL

---

Recorded MIC values for a group of molecules are listed next.
test system: S. aureus ATCC 33592 (MRSA); test: MIC microdilution (Table I-1); type: cell-based, Staphylococcus aureus; settings: Staphylococcus aureus, read after 18 hours, read-out: MIC

// worked examples, MIC included
>>> print(df.to_string())
                                   molecule  experimental_endpoint          val
0  CC(C)(C)OC(=O)NCC(NC(=O)C(F)(F)F)c1c[nH]c2ccc(Br)cc12 (stereo not shown) [Compound 13]                    MIC  > 128 µg/mL
1  CC(C)(C)OC(=O)NCC(NC(=O)C(=O)c1c[nH]c2cc(Br)ccc12)c1c[nH]c2ccccc12 (stereo not shown) [Compound 3]                    MIC      4 µg/mL
2  CC(C)(C)OC(=O)NCC(NC(=O)C(=O)c1c[nH]c2ccccc12)c1c[nH]c2ccccc12 (stereo not shown) [Compound 2]                    MIC  > 128 µg/mL
3  O=C(C(=O)N1CCCCC1c1c[nH]c2ccc(Br)cc12)c1c[nH]c2ccc(Br)cc12 (stereo not shown) [Compound 6d]                    MIC  > 128 µg/mL
4  CC(C)(C)OC(=O)N1CCN(C(=O)C(=O)c2c[nH]c3ccc(Br)cc23)C(c2c[nH]c3ccc(Br)cc23)C1 (stereo not shown) [Compound 6f]                    MIC  > 128 µg/mL
5  CC(C)(C)OC(=O)NCC(NC(=O)C(=O)c1c[nH]c2ccc(Br)cc12)c1c[nH]c2ccc(Br)cc12 (stereo not shown) [Compound 4]                    MIC    0.8 µg/mL
6  CC(NC(=O)C(=O)c1c[nH]c2ccc(Br)cc12)c1c[nH]c2ccc(Br)cc12 (stereo not shown) [Compound 5]                    MIC      1 µg/mL
7  O=C(C(=O)N1CCOCC1c1c[nH]c2ccccc12)c1c[nH]c2ccccc12 (stereo not shown) [Compound 6b]                    MIC  > 128 µg/mL

Can you look up MIC on S. aureus ATCC 33592 (MRSA) for O=C(C(=O)N1CCCCC1c1c[nH]c2ccccc12)c1c[nH]c2ccccc12 (stereo not shown) [Compound 6a] ?
> 128 µg/mL

Consider next the molecule CC(C)(C)OC(=O)N1CCN(C(=O)C(=O)c2c[nH]c3ccccc23)C(c2c[nH]c3ccccc23)C1 (stereo not shown) [Compound 6c] in the same way.
> 128 µg/mL

---

system: Staphylococcus aureus 1199B (overexpression of the NorA efflux pump); assay: Efflux pump inhibition assay with sub-inhibitory ciprofloxacin; format: cell-based; settings: in the presence of ciprofloxacin 4 mg/L (MIC/4)
Experimental Endpoint: CMI, mg/L (Ciprofloxacin concentration, mg/L)

// worked examples, CMI, mg/L (Ciprofloxacin concentration, mg/L) included
In [3]: df
Out[3]:
                                   molecule              val
0  O=C(C(=O)N1CCCCC1c1c[nH]c2ccc(Br)cc12)c1c[nH]c2ccc(Br)cc12 (stereo not drawn)  <0.125 (4) mg/L
1  O=C(C(=O)N1CCOCC1c1c[nH]c2ccccc12)c1c[nH]c2ccccc12 (stereo not drawn)     0.5 (4) mg/L
2  O=C(C(=O)N1CCCCC1c1c[nH]c2ccccc12)c1c[nH]c2ccccc12 (stereo not drawn)  <0.125 (4) mg/L
3  CC(C)(C)OC(=O)N1CCN(C(=O)C(=O)c2c[nH]c3ccc(Br)cc23)C(c2c[nH]c3ccc(Br)cc23)C1 (stereo not drawn)   <0.25 (4) mg/L

Can you look up CMI, mg/L (Ciprofloxacin concentration, mg/L) on Staphylococcus aureus 1199B (overexpression of the NorA efflux pump) for CC(C)(C)OC(=O)N1CCN(C(=O)C(=O)c2c[nH]c3ccccc23)C(c2c[nH]c3ccccc23)C1 (stereo not drawn) ?
0.25 (4) mg/L

Consider next the molecule CC(C)(C)OC(=O)NCC(NC(=O)C(=O)c1c[nH]c2ccccc12)c1c[nH]c2ccccc12 (stereo not drawn) in the same way.
0.5 (4) mg/L

---

Recorded inhibition at 10 µM values for a group of molecules are listed next.
Tested on: MRC5 (human lung fibroblast)
Assay: In vitro cytotoxicity
Format: cell-based
Details: MRC5, 10^−5 M, read-out: % of cellular growth inhibition
Protocol: In vitro cytotoxicity was assayed on three cell lines—KB (human mouth carcinoma), MCR5 (human lung fibroblast) and HCT116 (human colon tumor). Results are presented in table III as % of cellular growth inhibition in presence of 10^−5 M and 10^−6 M of the tested bis-indolic derivatives.
Give the value in % but do not write % after it.

// worked examples, inhibition at 10 µM included
>>> print(df.to_string())
                                   molecule  val
0  CC(NC(=O)C(=O)c1c[nH]c2ccc(Br)cc12)c1c[nH]c2ccc(Br)cc12 (stereo not drawn)   85
1  CC(C)(C)OC(=O)N1CCN(C(=O)C(=O)c2c[nH]c3ccc(Br)cc23)C(c2c[nH]c3ccc(Br)cc23)C1 (stereo not drawn)   39
2  O=C(C(=O)N1CCOCC1c1c[nH]c2ccccc12)c1c[nH]c2ccccc12 (stereo not drawn)   15
3  CC(C)(C)OC(=O)NCC(NC(=O)C(=O)c1c[nH]c2cc(Br)ccc12)c1c[nH]c2ccccc12 (stereo not drawn)   98
4  O=C(C(=O)N1CCOCC1c1c[nH]c2ccc(Br)cc12)c1c[nH]c2ccc(Br)cc12 (stereo not drawn)    0

Read the next record carefully.
Reported inhibition at 10 µM for CC(C)(C)OC(=O)NCC(NC(=O)C(=O)c1c[nH]c2ccccc12)c1c[nH]c2ccccc12 (stereo not drawn) : what is it?
100
